Measured pIC50 accompanies every entry in the list below.
Tested Target: NRAS WT (Homo sapiens (Human), UniProt P01111+P62937)
Sequence (P01111 whole entry, one chain of several): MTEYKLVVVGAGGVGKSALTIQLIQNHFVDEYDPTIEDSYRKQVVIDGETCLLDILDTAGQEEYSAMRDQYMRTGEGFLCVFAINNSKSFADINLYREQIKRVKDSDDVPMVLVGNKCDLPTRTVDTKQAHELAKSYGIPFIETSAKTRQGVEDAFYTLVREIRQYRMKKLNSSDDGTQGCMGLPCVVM
Test Details: Ras-Raf (BRAF RBD) disruption / FRET / MOA assay, NRAS WT
Type: biochemical
Experimental Context: read-out: IC50* NRAS WT FRET data
pIC50: −log10 of the molar value.
Endpoint Label: pIC50

INSERT INTO results (compound, result) VALUES
  ('C=CC(=O)N1CC[C@@]2(C1)CN(C(=O)N(C)[C@H](C(=O)N[C@H]1Cc3nc(cs3)-c3ccc4c(c3)c(c(-c3cccnc3[C@H](C)OC)n4CC)CC(C)(C)COC(=O)[C@@H]3CCCN(N3)C1=O)C(C)C)CCO2 (atropisomer, axis not shown)', '6.00 to 7.00'),
  ('C=CC(=O)N1CC[C@H](C(=O)N(C)[C@H](C(=O)N[C@H]2Cc3cc(O)cc(c3)-c3ccc4c(c3)c(c(-c3c(C)cccc3C)n4CC)CC(C)(C)COC(=O)[C@@H]3CCCN(N3)C2=O)C(C)C)C1', '< 5.00');

* * *

Measured IC50 accompanies every entry in the list below.
Tested Target: KRAS G12S (Homo sapiens (Human), UniProt P01116+P62937, G12S)
Sequence (P01116-2 other isoform, or with tags, fused parts or gaps G12S): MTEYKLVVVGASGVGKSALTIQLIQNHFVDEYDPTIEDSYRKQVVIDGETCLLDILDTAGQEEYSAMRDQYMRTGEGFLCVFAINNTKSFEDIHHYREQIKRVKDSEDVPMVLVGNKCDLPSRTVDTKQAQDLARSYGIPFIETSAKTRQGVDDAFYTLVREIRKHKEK
Sequence (P62937 whole entry): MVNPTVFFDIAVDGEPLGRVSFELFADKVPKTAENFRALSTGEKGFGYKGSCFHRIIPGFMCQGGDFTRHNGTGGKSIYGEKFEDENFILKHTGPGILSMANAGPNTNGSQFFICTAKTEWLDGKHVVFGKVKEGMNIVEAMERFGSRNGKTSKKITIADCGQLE
Test Details: Ras-Raf (BRAF RBD) disruption / FRET / MOA assay, KRAS G12S
Format: biochemical
Experimental Context: Ras-Raf disruption/FRET/MOA assay; class symbols; read-out: KRAS G12S FRET data IC50
Endpoint Label: IC50

INSERT INTO results (compound, endpoint_label, result) VALUES
  ('C=CC(=O)N1C[C@@H]2[C@H](C1)[C@@H]2C(=O)N(C)[C@H](C(=O)N[C@H]1Cc2cc(O)cc(c2)-c2ccc3c(c2)c(c(-c2cccnc2[C@H](C)OC)n3CC)CC(C)(C)COC(=O)[C@@H]2CCCN(N2)C1=O)C(C)C (atropisomer, axis not shown)', 'IC50', '0.01 to 0.1 µM'),
  ('C=CC(=O)N1CCO[C@H]2CN(C(=O)N(C)[C@H](C(=O)N[C@H]3Cc4coc(n4)-c4ccc5c(c4)c(c(-c4cccnc4[C@H](C)OC)n5CC(F)(F)F)CC(C)(C)COC(=O)[C@@H]4CCCN(N4)C3=O)C(C)C)C[C@H]21 (atropisomer, axis not shown)', 'IC50', '1 to 10 µM'),
  ('C=CC(=O)N1CC[C@H](C(=O)N(C)[C@H](C(=O)N[C@@H]2C(=O)N3CCC[C@H](N3)C(=O)OCC(C)(C)Cc3c(-c4cncnc4)n(CC)c4ccc(cc34)-c3cccc(c3)[C@H]2O)C(C)C)C1', 'IC50', '> 10 µM'),
  ('CCn1c(-c2cccnc2COC)c2c3cc(ccc31)-c1cc(O)cc(c1)C[C@H](NC(=O)[C@H](C(C)C)N(C)C(=O)[C@H]1C[C@@H](C)N(C(=O)C#CCN(C)C)C1)C(=O)N1CCC[C@H](N1)C(=O)OCC(C)(C)C2', 'IC50', '1 to 10 µM'),
  ('C=CC(=O)N1CCO[C@H]2CN(C(=O)N(C)[C@H](C(=O)N[C@H]3Cc4cccc(c4)-c4ccc5c(c4)c(c(-c4cccnc4[C@H](C)OC)n5CC)CC(C)(C)COC(=O)[C@@H]4CCCN(N4)C3=O)C(C)C)C[C@H]21 (atropisomer, axis not shown)', 'IC50', '1 to 10 µM'),
  ('C=CC(=O)N1CC[C@H](C(=O)N(C)[C@H](C(=O)N[C@H]2Cc3cccc(c3)-c3ccc4c(c3)c(c(-c3cc(C5CN(C)C5)cnc3[C@H](C)OC)n4CC)CC(C)(C)COC(=O)[C@@H]3CCCN(N3)C2=O)C(C)C)C1 (atropisomer, axis not shown)', 'IC50', '1 to 10 µM'),
  ('C=CC(=O)N1CC[C@H](C(=O)N(C)[C@H](C(=O)N[C@H]2Cc3cc(O)cc(c3)-c3ccc4c(c3)c(c(-c3cnccc3[C@@H](OC)C3CC3)n4CC)CC(C)(C)COC(=O)[C@@H]3CCCN(N3)C2=O)C(C)C)C1', 'IC50', '> 10 µM'),
  ('CC#CC(=O)N1CC[C@H](C(=O)N(C)[C@H](C(=O)N[C@H]2Cc3nc(cs3)-c3ccc4c(c3)c(c(-c3cccnc3[C@H](C)OC)n4C(C)=O)CC(C)(C)COC(=O)[C@@H]3CCCN(N3)C2=O)C(C)C)C1', 'IC50', '> 10 µM');
